tested on: naïve CD4+ and CD8+ T cells co-cultured with nTreg cells; test: Oil-Red O staining, LD formation in T cells co-cultured with Treg cells; type: cell-based, human; conditions: naïve CD4+ and CD8+ T cells pretreated with inhibitor 24 hours, co-cultured with nTreg 4:1, 3 days
EXPERIMENTAL_ENDPOINT: LD formation (Oil red O+ T cell populations) induced by Treg cells

So, O=c1cc(-c2cccc3c2Sc2ccccc2S3)oc(N2CCOCC2)c1 [KU55933] ? Its LD formation (Oil red O+ T cell populations) induced by Treg cells was dramatically reduced

So, CC(C)c1cc(C(C)C)c(CC(=O)NS(=O)(=O)Oc2c(C(C)C)cccc2C(C)C)c(C(C)C)c1 [avasimible] ? Its LD formation (Oil red O+ T cell populations) induced by Treg cells was dramatically reduced

This collection of values is drawn from patent US12590309B2.
